What follows is literature data on pIC50 for Tyrosine-protein kinase TXK (Homo sapiens, UniProt P42681).
pIC50: −log10 of the molar value.
Measured metric: pIC50

CC#CC(=O)NCCCC(=O)c1nc(-c2ccc(C(=O)Nc3ccccn3)c(OC)c2)c2c(N)nccn12 = 7.23
C=CC(=O)N1CC[C@]2(C1)C[C@H](n1c(NC(=O)c3ccc(-c4cncnc4)s3)nc3cc(CO)ccc31)C2 = 9.16
C=CC(=O)N1CC[C@]2(C1)C[C@H](n1c(NC(=O)c3ccc(-c4cnco4)s3)nc3ccc(Cl)cc31)C2 = 9.38
C=CC(=O)N1CC[C@]2(C1)C[C@H](n1c(NC(=O)c3ccc(NC(=O)C4CCCC4)s3)nc3ccccc31)C2 = 7.52
C=CC(=O)N1CC[C@]2(C1)C[C@H](n1c(NC(=O)c3ccc(-c4cc(NC)ncn4)s3)nc3ccccc31)C2 = 9.70
C=CC(=O)N1CC[C@]2(C1)C[C@H](n1c(NC(=O)c3cc(-c4ccccc4)no3)nc3cc(CN4CCCC4)ccc31)C2 = 8.71
C=CC(=O)N1CC[C@]2(C1)C[C@H](n1c(NC(=O)c3ccc(N4CCCC4=O)s3)nc3ccccc31)C2 = 8.26

###

What follows is literature data on IC50 for Tyrosine-protein kinase TXK (Homo sapiens, UniProt P42681).
Measured metric: IC50

O=C(CNc1cc(Cl)cc(Cl)c1)N1CC[C@@H]2CCN(c3ncnc4[nH]ccc34)[C@@H]2C1 = 0.1 to 0.999 µM
CN(c1ncnc2[nH]ncc12)C1CCCCN(C(=O)CNc2cc(Cl)cc(Cl)c2)C1 (stereo not shown) = > 10 µM
CC#CC(=O)N[C@@H](C)c1nc(-c2ccc(C(=O)Nc3cc(C(F)(F)F)ccn3)c(OC)c2)c2c(N)nccn12 = 0.0047 µM
C=CC(=O)N1CCC(n2nc(-c3ccc(Oc4ccccc4)cc3)c3cncnc32)CC1 = 0.1 to 0.5 µM
CN(C)CC#CC(=O)N1CC2(CC(n3nc(-c4ccc(Oc5ccccc5)cc4)c4cncnc43)C2)C1 = < 0.1 µM
CC1C(Nc2ncnc3[nH]ccc23)CCCN1C(=O)CNc1cc(Cl)cc(Cl)c1 (stereo not shown) = 1 to 10 µM
C=CC(=O)N1CCC[C@H]1c1nc(-c2ccc(Oc3ccccc3)cc2)c2cnccn12 = 0.1 to 0.5 µM
C=CC(=O)N1CCC[C@@H](Nc2nnc(C(N)=O)c(Nc3cncc(F)c3)n2)C1 = ≤ 0.01 µM
O=C(CNc1cc(Cl)cc(Cl)c1)N1Cc2ccccc2C(Nc2ncnc3[nH]ccc23)C1 (stereo not shown) = > 10 µM
C=C(F)C(=O)N1CCC[C@@H](n2nc(-c3ccc(Oc4ccccc4)cc3)c3cncnc32)C1 = 0.1 to 0.5 µM

###

pIC50: −log10 of the molar value.
What follows is literature data on pIC50 for UniProt:P42681.
Measured metric: pIC50

C=CC(=O)N1CCC[C@H]1Cn1nc(-c2ccc(Oc3cccc(C)c3)cc2)c2cncnc21 = > 7.00
C=CC(=O)N1CCC[C@@H](Nc2nnc(C(N)=O)c(Nc3cc(C)ns3)n2)C1 = ≥ 8.00
O=C(CNc1cc(Cl)cc(Cl)c1)N1CCC2CCN(c3ncnc4[nH]ccc34)C2C1 (centres unmarked) = 6.00 to 7.00
CN(C)C/C=C/C(=O)N1CC[C@@H](n2nc(-c3ccc(Oc4ccccc4)cc3)c3cncnc32)C1 = < 6.30
C=CC(=O)N1CCC[C@@H](Nc2nnc(C(N)=O)c(Nc3ccc(-n4cncn4)cc3)n2)C1 = ≥ 8.00
C=CC(=O)N1CCC[C@@H](Nc2nnc(C(N)=O)c(Nc3ccc4c(cnn4CC)c3)n2)C1 = ≥ 8.00
CC#CC(=O)N1CCC[C@H]1Cn1nc(-c2ccc(Oc3ccccc3)cc2F)c2cncnc21 = < 6.30
C=CC(=O)N1CCC[C@@H](Nc2nnc(C(N)=O)c(Nc3ccc(C(C)C)c(C)c3)n2)C1 = ≥ 8.00
